Record: GI50 reported on NCI-H460 lung.

Here's what some known entries look like.
Reported GI50 for COc1ccc(S(=O)(=O)N2CCN(C(=O)OCc3ccccc3)CC2C(=O)NO)cc1 (stereo not given) : what is it?
> 25 µM

# repeat for `NC(=O)c1nnn(Cc2cc(Cl)c(C(=O)c3ccc(Cl)cc3)c(Cl)c2)c1N`
1.04 µM

# repeat for CC(C)(C)C(=O)OCOP(=O)(OCOC(=O)C(C)(C)C)C1CCCN(OC(=O)c2ccccc2)C1=O (stereo not given)
1.11 µM

# repeat for `O=C(CCc1nnc(-c2c(Cl)cccc2Cl)o1)c1nc2ccccc2[nH]1`
4.99 µM

Next item in the queue.
Reported GI50 for `C[As](C)Sc1ccnc(S[As](C)C)n1` : what is it?
19.1 µM
